experimentDescription: Hemolytic assay
Assay type: cell-based
runConditions: human, human red blood cells (erythrocyte suspension in PBS)
outcomeMeasure: hemolysis at 1 h, 1000 μg mL^−1

Could you please provide reported hemolysis at 1 h, 1000 μg mL^−1 for CCOC(=O)c1nc2ccccc2c(=O)n1Cc1cn(-c2ccc(C)cc2)nn1 ? Thanks!
41.2%

Could you please provide reported hemolysis at 1 h, 1000 μg mL^−1 for OC(Cn1cncn1)(Cn1cncn1)c1ccc(F)cc1F [FLC, fluconazole, reference compound] ? Thanks!
78.1%

Could you please provide reported hemolysis at 1 h, 1000 μg mL^−1 for CCOC(=O)c1nc2ccccc2c(=O)n1Cc1cn(-c2ccccc2OC)nn1 ? Thanks!
< 20%

Could you please provide reported hemolysis at 1 h, 1000 μg mL^−1 for CCOC(=O)c1nc2ccccc2c(=O)n1Cc1cn(-c2cccc(Cl)c2)nn1 ? Thanks!
< 20%

Could you please provide reported hemolysis at 1 h, 1000 μg mL^−1 for COc1ccccc1-n1cc(Cn2c(C(=O)O)nc3ccccc3c2=O)nn1 ? Thanks!
< 20%

Could you please provide reported hemolysis at 1 h, 1000 μg mL^−1 for O=C(O)c1nc2ccccc2c(=O)n1Cc1cn(-c2ccccc2F)nn1 ? Thanks!
< 20%

Could you please provide reported hemolysis at 1 h, 1000 μg mL^−1 for Cc1ccc(-n2cc(Cn3c(C(=O)O)nc4ccccc4c3=O)nn2)cc1 ? Thanks!
< 20%

----------
System: C. albicans (ATCC 90028)
experimentDescription: In vitro anticandidal activity, broth dilution
Format: cell-based
runConditions: Candida albicans, ATCC90028, 24 h, read-out: IC50 ± S.D, C. albicans
outcomeMeasure: IC50 (µg/mL)
# number only, unit µg/mL dropped from output

Could you please provide reported IC50 for CCOC(=O)c1nc2ccccc2c(=O)n1Cc1cn(-c2cccc(OC)c2)nn1 ? Thanks!
340

Could you please provide reported IC50 for CCOC(=O)c1nc2ccccc2c(=O)n1Cc1cn(-c2ccccc2OC)nn1 ? Thanks!
18.6

Could you please provide reported IC50 for O=C(O)c1nc2ccccc2c(=O)n1Cc1cn(-c2ccccc2F)nn1 ? Thanks!
101

Could you please provide reported IC50 for CCOC(=O)c1nc2ccccc2c(=O)n1Cc1cn(-c2cccc(F)c2)nn1 ? Thanks!
510

Could you please provide reported IC50 for CCOC(=O)c1nc2ccccc2c(=O)n1Cc1cn(-c2ccc(C(=O)O)cc2)nn1 ? Thanks!
342

Could you please provide reported IC50 for CCOC(=O)c1nc2ccccc2c(=O)n1Cc1cn(-c2ccccc2Cl)nn1 ? Thanks!
124

Could you please provide reported IC50 for CCOC(=O)c1nc2ccccc2c(=O)n1Cc1cn(-c2ccc([N+](=O)[O-])cc2)nn1 ? Thanks!
151

Could you please provide reported IC50 for COc1ccc(-n2cc(Cn3c(C(=O)O)nc4ccccc4c3=O)nn2)cc1 ? Thanks!
125

Could you please provide reported IC50 for O=C(O)c1nc2ccccc2c(=O)n1Cc1cn(-c2ccc(F)cc2)nn1 ? Thanks!
172

Could you please provide reported IC50 for COc1cccc(-n2cc(Cn3c(C(=O)O)nc4ccccc4c3=O)nn2)c1 ? Thanks!
214

Could you please provide reported IC50 for Cc1ccccc1-n1cc(Cn2c(C(=O)O)nc3ccccc3c2=O)nn1 ? Thanks!
131

Could you please provide reported IC50 for O=C(O)c1nc2ccccc2c(=O)n1Cc1cn(-c2ccccc2Cl)nn1 ? Thanks!
169

Could you please provide reported IC50 for CCOC(=O)c1nc2ccccc2c(=O)n1Cc1cn(-c2ccc(F)cc2)nn1 ? Thanks!
209

Could you please provide reported IC50 for O=C(O)c1nc2ccccc2c(=O)n1Cc1cn(-c2ccccc2)nn1 ? Thanks!
119
